Molecular target: T1, human Claudin18.2 (human, UniProt P56856 1-261)
T1 sequence (looked up): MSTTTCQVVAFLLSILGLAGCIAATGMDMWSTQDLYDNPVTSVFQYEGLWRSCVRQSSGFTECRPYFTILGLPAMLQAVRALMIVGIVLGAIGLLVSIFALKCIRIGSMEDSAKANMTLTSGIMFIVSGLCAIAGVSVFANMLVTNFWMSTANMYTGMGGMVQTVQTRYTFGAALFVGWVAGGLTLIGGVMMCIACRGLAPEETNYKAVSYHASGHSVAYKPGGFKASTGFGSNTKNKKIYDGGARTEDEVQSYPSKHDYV
Assay: cell-based or functional assay
Reported metric: IC50 of in vitro cell killing on NUGC4-hClaudin18.2 cells (CCK-8 cell viability, 120 h)

Answer with the recorded IC50 of in vitro cell killing on NUGC4-hClaudin18.2 cells (CCK-8 cell viability, 120 h) for the binder listed here: 9D1-vc-PAB-MMAE (antibody, human IgG1, kappa, V domains shown, MC-VC-PAB-MMAE linker-drug on partially reduced interchain cysteines (Conjugation Method 2, DAR 4)) VH: QIQLVQSGAEVKKPGASVKISCKASGYSFTDYHMNWVRQAPGKGLEWIGNIDPYYGSPTYNHKFKGRVTLTVDTSTSTAYMELSSLRSEDTAVYYCANYGRGNSFPYWGQGTLVTVSS VL: DIVMTQSPSSLAVSLGERATINCKSSQSLLNSGNQRNYLTWYQQKPGQPPKLLIYWASTRESGVPDRFSGSGSGTDFTLTISSLQAEDVAVYYCQNDYSFPFTFGQGTKLEIKR
0.064 nM
